TESTED TARGET: T1, Expi293-derived human TF ECD-His6 (TF-His) (human, UniProt P13726 33-251)
T1 construct: Glycosylated TF ECD-His6 made in Expi293 cells and coated on ELISA plates; also called Expi293-derived TF protein
METHOD SUMMARY: protein ELISA, plate coated with Expi293-derived TF-His
Please respond with reported EC50 for every item in the list.

Enquiry: // fetch EC50 given entry anti-TF antibody 25A3 (antibody, human IgG1, kappa, V domains shown, Human IgG1) VH: QVQLVQSGAEVKKPGASVKVSCKASGYTFDVYGISWVRQAPGQGLEWMGWIAPYSGNTNYAQKLQGRVTMTTDTSTSTAYMELRSLRSDDTAVYYCARDAGTYSPFGYGMDVWGQGTTVTVSS VL: DIQMTQSPSTLSASVGDRVTITCQASQSINNWLAWYQQKPGKAPKLLIYKAYNLESGVPSRFSGSGSGTEFTLTISSLQPDDFATYYCQLFQSLPPFTFGGGTKVEIKR
Return: 0.47 nM

Enquiry: // fetch EC50 given entry anti-TF antibody 25G1 (antibody, human IgG1, kappa, V domains shown, Human IgG1) VH: QVQLVQSGAEVKKPGASVKVSCKASGYTFRSYGISWVRQAPGQGLEWMGWVAPYSGNTNYAQKLQGRVTMTTDTSTSTAYMELRSLRSDDTAVYYCARDAGTYSPYGYGMDVWGQGTTVTVSS VL: DIQMTQSPSTLSASVGDRVTITCRASHSIDSWLAWYQQKPGKAPKLLIYKASYLESGVPSRFSGSGSGTEFTLTISSLQPDDFATYYCQLFQSLPPFTFGGGTKVEIKR
Return: 0.42 nM

Enquiry: // fetch EC50 given entry anti-TF antibody 39A (antibody, human IgG1, V domains shown, Human IgG1) VH: QVQLVQSGAEVKKPGSSVKVSCKASGGTFSSNAIGWVRQAPGQGLEWMGSIIPIIGFANYAQKFQGRVTITADESTSTAYMELSSLRSEDTAVYYCARDSGYYYGASSFGMDVWGQGTTVTVSS VL: EIVMTQSPATLSVSPGERATLSCRASQSVSSNLAWYQQKPGQAPRLLIYGASTRATGIPARFSGSGSGTEFTLTISSLQSEDFAVYYCEQYNNLPLTFGGGTKVEIK
Return: 0.45 nM

Enquiry: // fetch EC50 given entry anti-TF antibody 54E (antibody, human IgG1, V domains shown, Human IgG1) VH: QVQLVQSGAEVKKPGASVKVSCKASGYTFANYYMHWVRQAPGQGLEWMGIINPSGGITVYAQKFQGRVTMTRDTSTSTVYMELSSLRSEDTAVYYCARGGSKVAALAFDIWGQGTMVTVSS VL: DIQMTQSPSSLSASVGDRVTITCQASQDISNSLNWYQQKPGKAPKLLIYDASNLETGVPSRFSGSRSGTDFTFTISSLQPEDIATYYCQQYNFHPLTFGGGTKVEIK
Return: 0.96 nM
